system: RXF 393 renal; assay: NCI-60 one-dose screen, 48 h (100 = growth as untreated, 0 = no growth, -100 = all killed); settings: 10 µM unless noted
About 83,000 compounds went through this panel and 20% of them were active in at least one assay; those are over-represented in the sample as a whole.
Attribute: growth
Answer in %, number only, no unit symbol.

// worked examples, growth included
INSERT INTO assay_data (compound, property_label, reported_measurement) VALUES
  ('O=C(Nc1ccc(Br)cc1)Nc1nc2ccc([N+](=O)[O-])cc2s1', 'growth', -27.8),
  ('Clc1ccc(N/N=c2/oc3ccccc3cc2-c2cc3ccccc3[nH]2)cc1', 'growth', 76),
  ('COc1cc(OC)c(/C=C/S(=O)(=O)Cc2ccc(OC)c(NCC(=O)NO)c2)c(OC)c1', 'growth', -0.671),
  ('CC(=O)Nc1cccc(Nc2nc(N[C@@H](C)c3ccccc3)c3ccccc3n2)c1', 'growth', -48.3),
  ('CCOc1cccc(-c2nc3sccn3c2-c2ccnc(S(C)(=O)=O)n2)c1', 'growth', 98.3);

Kindly review the next compound as well.
Return growth (reported value) for this compound: CCO/C=N/C1=C(C#N)C(c2ccc(Cl)cc2)c2sc3c(C)cccc3c2O1 (centres undefined)
-27.6
